# target_of_assay: human ether-à-go-go-related gene (hERG) potassium channel (human);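 further: peak tail current of the secondary pulse compared with the same well before compound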
# Sequence (Q12809 whole entry, looked up): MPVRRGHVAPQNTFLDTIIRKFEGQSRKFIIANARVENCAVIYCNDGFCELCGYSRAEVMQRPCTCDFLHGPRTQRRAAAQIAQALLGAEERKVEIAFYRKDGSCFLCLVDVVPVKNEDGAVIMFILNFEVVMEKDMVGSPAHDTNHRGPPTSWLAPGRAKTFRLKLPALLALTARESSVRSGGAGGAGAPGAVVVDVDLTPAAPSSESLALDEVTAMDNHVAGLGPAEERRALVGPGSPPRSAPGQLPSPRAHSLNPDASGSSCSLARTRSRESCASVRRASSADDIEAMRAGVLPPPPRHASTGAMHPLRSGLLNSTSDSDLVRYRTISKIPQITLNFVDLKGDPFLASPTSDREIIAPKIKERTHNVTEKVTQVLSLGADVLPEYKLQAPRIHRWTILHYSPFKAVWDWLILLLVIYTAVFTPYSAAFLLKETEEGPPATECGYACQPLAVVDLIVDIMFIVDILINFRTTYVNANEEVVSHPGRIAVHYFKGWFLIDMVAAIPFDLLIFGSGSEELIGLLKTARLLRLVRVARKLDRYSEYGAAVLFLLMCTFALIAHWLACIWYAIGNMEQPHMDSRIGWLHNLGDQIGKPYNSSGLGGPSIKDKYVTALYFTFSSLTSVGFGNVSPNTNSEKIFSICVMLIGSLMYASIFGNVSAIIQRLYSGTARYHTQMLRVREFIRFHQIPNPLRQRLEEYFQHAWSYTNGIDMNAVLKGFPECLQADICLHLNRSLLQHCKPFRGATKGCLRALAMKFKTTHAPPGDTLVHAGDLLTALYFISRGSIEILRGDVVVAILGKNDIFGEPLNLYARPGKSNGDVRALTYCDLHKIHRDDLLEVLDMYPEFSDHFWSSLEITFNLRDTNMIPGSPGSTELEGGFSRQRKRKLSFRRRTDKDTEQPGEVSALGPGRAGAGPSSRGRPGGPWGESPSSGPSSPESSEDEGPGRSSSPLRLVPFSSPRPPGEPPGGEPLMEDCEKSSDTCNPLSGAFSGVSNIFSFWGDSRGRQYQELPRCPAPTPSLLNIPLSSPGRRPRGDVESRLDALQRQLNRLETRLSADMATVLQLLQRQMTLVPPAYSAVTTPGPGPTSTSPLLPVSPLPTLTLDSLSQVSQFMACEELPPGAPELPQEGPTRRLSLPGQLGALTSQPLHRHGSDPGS
# assay_overview: primary screen, population patch clamp on CHO cells stably expressing hERG; higher = less effect of the substance
Out of some 310,000 compounds screened, about 14,000 (4.5%) showed an effect of 50% or more. The effect is printed as a negative number. The sample as a whole holds a higher share of strong results than the screen did.
Threshold check on hERG current change (%, negative = inhibition) at 10uM: at or above -20% gives Condition met, strictly below gives Condition not met.

Illustrative cases are given below, each with its answer.
INSERT INTO assay_data (compound, category_label) VALUES
  ('O=C(c1ccc(-c2ccccc2)c(F)c1)C1CCCN(CCO)C1 (centres unmarked)', 'Condition not met'),
  ('CCC(=O)N1CCCC(C(=O)c2ccc(-c3ccccc3)cc2)C1 (centres unmarked)', 'Condition met'),
  ('CN1CCN(c2ccc([N+](=O)[O-])cc2NC(=O)c2ccccc2Cl)CC1', 'Condition not met'),
  ('CN(C(=O)c1ccc(OC2CCN(CCc3ccccc3)CC2)cc1)C1CCOCC1', 'Condition met'),
  ('N#CCN1CCCC(C(N)=O)C1 (centres unmarked)', 'Condition met'),
  ('CCn1cc(CN2CCCC(C(=O)c3ccc(-c4ccccc4)c(F)c3)C2)cn1 (centres unmarked)', 'Condition not met'),
  ('O=c1c2ccccc2nnn1-c1ccc(Br)cc1', 'Condition met'),
  ('Cc1cc(CN(C)C(=O)c2ccc(OC3CCN(Cc4ccccn4)CC3)cc2)on1', 'Condition not met');

Query: Hi team, for CCn1cc(CN2CCCC(C(=O)c3ccc(-c4ccccc4)cc3)C2)cn1 (centres unmarked) , is the recorded hERG current change (%, negative = inhibition) at 10uM at or above -20%?
Result: Condition not met

Query: Given the entry CCc1ccc(CN2CCCC(CNC(=O)c3cccc(OC)c3OC)C2)cc1 (centres unmarked) , answer whether its hERG current change (%, negative = inhibition) at 10uM meets or surpasses -20%.
Result: Condition not met

Query: Decide: is the reported value of hERG current change (%, negative = inhibition) at 10uM for Cc1cc(CN(C)C(=O)c2ccc(OC3CCN(CCc4ccccc4)CC3)cc2)on1 equal to or greater than -20%?
Result: Condition not met

Query: API: above_or_equal(metric=hERG current change (%, negative = inhibition) at 10uM, cutoff=-20%) for item COc1ccccc1CN1CCCC(CNC(=O)c2cccc3ccccc23)C1 (centres unmarked)
Result: Condition not met

Query: Does the reported hERG current change (%, negative = inhibition) at 10uM for O=C(Nc1ccccc1N1CCCC1)c1ccc([N+](=O)[O-])cc1Cl fall at or above the -20% mark?
Result: Condition not met

Query: Confirm if hERG current change (%, negative = inhibition) at 10uM reported for the compound CN(Cc1nccn1C)C(=O)c1ccc(OC2CCN(CCc3ccccc3)CC2)cc1 is -20% or above.
Result: Condition not met

Query: Confirm if hERG current change (%, negative = inhibition) at 10uM reported for the compound Cc1ccc2nc(=O)c(NNc3ccccc3)cnc2c1 is -20% or above.
Result: Condition met
